Biological target: hErbB3.mmh (soluble monomeric human ErbB3 extracellular domain with C-terminal myc-myc-hexahistidine tag) (human, UniProt P21860 20-642)
Sequence (P21860 other isoform, or with tags, fused parts or gaps): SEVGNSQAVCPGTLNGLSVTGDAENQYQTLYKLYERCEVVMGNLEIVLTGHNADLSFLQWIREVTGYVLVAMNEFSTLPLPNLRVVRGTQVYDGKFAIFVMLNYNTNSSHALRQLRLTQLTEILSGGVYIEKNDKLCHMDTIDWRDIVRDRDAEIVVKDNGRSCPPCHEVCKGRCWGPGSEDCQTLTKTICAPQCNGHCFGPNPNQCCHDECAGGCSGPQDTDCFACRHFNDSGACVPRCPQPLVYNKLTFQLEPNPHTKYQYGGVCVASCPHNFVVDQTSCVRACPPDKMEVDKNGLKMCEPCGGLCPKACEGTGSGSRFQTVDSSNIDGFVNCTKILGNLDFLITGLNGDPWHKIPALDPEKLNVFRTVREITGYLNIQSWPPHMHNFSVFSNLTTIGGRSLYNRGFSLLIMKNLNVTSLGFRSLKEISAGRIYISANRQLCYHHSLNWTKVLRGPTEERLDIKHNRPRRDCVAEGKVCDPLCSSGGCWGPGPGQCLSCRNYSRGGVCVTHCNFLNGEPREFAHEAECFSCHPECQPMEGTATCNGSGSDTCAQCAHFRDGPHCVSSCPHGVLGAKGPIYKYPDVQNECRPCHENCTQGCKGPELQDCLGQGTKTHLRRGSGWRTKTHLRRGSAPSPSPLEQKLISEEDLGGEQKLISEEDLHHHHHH
Experiment: SPR (Biacore), 25 C, mAb capture format
quantity: kon

Input line: Let me know recorded kon for H2M1934N (antibody, V domains shown, Hybridoma chimeric antibody: human variable domains, mouse IgG2 Fc (H2M prefix)) VH: EVQLVQSGGGLVKPGGSLRLSCAASGFTFSNFNMNWVRQAPGKGLEWVSFISSLSTYTYYADSVKGRFTISRDNAKNSLYLQMNSLRAEDTAVYYCARDDGDHDWFDPWGQGTLVTVSS VL: EIVLTQSPDTLSLSPGERATLSCRASQSVSSNYLAWYQQKPGQAPRLLIYSASNRATGIPDRFSGSGSGTDFTLTISRLEPEDFAVYYCQQYDSSYTFGQGTKLEIK , thanks.
Output line: 168000 M⁻¹ s⁻¹
